The values you see were collected from patent US4521422A.

System: Brain-Specific Receptors of Rats
Assay: Inhibition of the binding of 3H-benzodiazepine to brain-specific receptors of rats
Set-up: species or system rat (Wistar)
Settings: 3H-diazepam 1.5 nM or 3H-flunitrazepam 1.0 nM; rat cortex P2 fraction; test concentration not given
Group membership follows % Inhibition per the scheme group A = under 20%, group B = from 20% up to 90%, group C = 90% and over

Task item: Input O=C(c1ccccc1)c1cnn2c(-c3cc(C(F)(F)F)ccc3Cl)ccnc12 ; output its category
Reply: group B

Task item: Also Cc1ccc(C(=O)c2cnn3c(-c4ccccn4)ccnc23)cc1 , if possible.
Reply: group A

Task item: Also O=C(c1ccccn1)c1cnn2c(-c3ccccn3)ccnc12 , if possible.
Reply: group B

Task item: Also O=C(c1ccccn1)c1cnn2c(-c3cccnc3)ccnc12 , if possible.
Reply: group C

Task item: Also O=C(c1ccncc1)c1cnn2c(-c3ccncc3)ccnc12 , if possible.
Reply: group A

Task item: Also CC(=O)Nc1cccc(-c2ccnc3c(C(=O)c4ccccc4)cnn23)c1 , if possible.
Reply: group B

Task item: Also O=C(c1ccc(Cl)cc1)c1cnn2c(-c3cccnc3)ccnc12 , if possible.
Reply: group B

Task item: Also O=C(c1ccccc1)c1cnn2c(-c3cccc(Cl)c3)ccnc12 , if possible.
Reply: group C

Task item: Also Cc1cc(-c2ccc(Cl)c(Cl)c2)n2ncc(C(=O)c3ccccc3)c2n1 , if possible.
Reply: group C
